Listed here: items and their measured Human Plasma Anticoagulation 2× Clotting time PT.
Test system: Human plasma
Experiment: Human plasma anticoagulation, prothrombin time (PT)
Format: biochemical
Details: concentration required to double the PT, linear extrapolation
Give the number; ng/mL is assumed, so skip it.

Take a look at these entries with their results.
Nc1cc(CNC(=O)[C@@H]2CCCN2C(=O)[C@@H](CC2CCCCC2)NCC(=O)O)ccn1 [Example 73] : 330
N=C(N)c1ccc(CNC(=O)[C@@H]2CCCN2C(=O)[C@@H](CC2CCCCC2)NCC(=O)O)cc1 [Example 48] : 59

Now examine the next entry.
molecule N=C(N)c1ccc(CNC(=O)[C@@H]2C[C@@H]3CCCC[C@@H]3N2C(=O)[C@@H]2NCC[C@@H]3CCCC[C@@H]32)cc1 (relative stereo) [Example 42] , Human Plasma Anticoagulation 2× Clotting time PT observed: 320

Attribution: patent US5707966A
